Here is a set of compounds with reported IC50 for Plasminogen (Rattus norvegicus, UniProt Q01177), compiled from the literature.
property_label: IC50 (nM)

(I) C=CCN(CC(=O)O)C(=O)/C(C)=C/c1ccc(C(=O)Oc2ccc(C(=N)N)cc2)cc1.CS(=O)(=O)O
(II) CC(C)(C)NC(=O)N1CCN(C(=O)N2C(=O)[C@H](CCCN=C(N)N)C2C(=O)O)CC1 (single isomer, unassigned)
(III) N=C(N)Nc1ccc(C(=O)Oc2ccc(CC(=O)O)cc2)cc1
(IV) CC(=O)N[C@H](Cc1ccccc1)C(=O)N[C@@H](Cc1cccc2ccccc12)C(=O)N[C@@H](CCCN=C(N)N)C(=O)c1nc2ccccc2o1
// smallest IC50 at index 0, largest at the end Labels, ranked as asked. IV, II, I, III
(IV: 14.2 nM, II: 430 nM, I: 1830 nM, III: 12500 nM)
